system-name: Aster-B (Homo sapiens, UniProt Q3KR37)
Construct: -B(364-552); GST (PreScission-cleavable) (N, cleaved yes); made in house; host or cells: E. coli OverExpress C41
Sequence (Q3KR37 364-552): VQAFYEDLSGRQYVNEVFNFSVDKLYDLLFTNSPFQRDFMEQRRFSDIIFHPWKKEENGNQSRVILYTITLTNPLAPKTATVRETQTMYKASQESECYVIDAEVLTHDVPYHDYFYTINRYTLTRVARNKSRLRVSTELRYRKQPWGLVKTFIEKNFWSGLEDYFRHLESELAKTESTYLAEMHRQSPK
procedure-details: Fluorescence polarisation (FP) competition with NBD-cholesterol, Aster-B
Type: binding
test-settings: single dose, Dose = 10 µM
endpoint-label: inhibition at 10 µM (%)
Unit % implied. Number only.

Lookup: Could you tell me which inhibition at 10 µM is on file for Cc1ccc2c(c1)C(=O)CC[C@@H]1C[C@H](O)CC[C@]1(C)C(=O)N2 [Compound 11c] ?
Found: 6

Lookup: # iterate: Cc1cc(C)c2c(c1)N=C1[C@@]2(O)CC[C@@H]2C[C@H](O)CC[C@]12C [Compound 14c]
Found: 17

Lookup: Also C[C@]12CC[C@@H](O)C[C@H]1CCc1sc(N)nc12 ?
Found: 3.33

Lookup: Another molecule to look at: CC(C)(C)OC(=O)N1CCN(c2ccc3c(c2)C24CCC5CC(CCC52C)OC4=N3)CC1 (centres unmarked) [Compound 19e]
Found: 14

Lookup: Similarly, C[C@]12CC[C@@H]3C[C@H]1CC[C@@]21C(=Nc2ccc(Br)cc21)O3 (racemic) [Compound 15b] ?
Found: 19

Lookup: COc1ccc2c(c1)[C@]1(O)CC[C@@H]3C[C@H](O)CC[C@]3(C)C1=N2 [Compound 14b] , same question.
Found: 17

Lookup: Another: C[C@]12CC[C@@H]3C[C@H]1CC[C@@]21C(=Nc2ccc(-c4ccccc4)cc21)O3 [Compound 21a]
Found: 25

Lookup: And for CC12CCC3CC1CCC21C(=Nc2ccc(Cl)cc21)O3 (centres unmarked) [Compound 15c] ?
Found: 12

Lookup: Try this molecule too: C[C@]12CC[C@@H](O)C[C@H]1CCc1c2[nH]c2ncccc12
Found: 8

Lookup: For CC12CCC(O)CC1CCc1c2[nH]c2ccc(C(F)(F)F)cc12 (centres unmarked) [Compound 10g] then?
Found: -2.5

Lookup: Here is the next molecule: C[C@]12CC[C@@H](O)C[C@H]1CCC[C@]21NC(=O)c2ccc(F)cc2N1
Found: 15

Lookup: Cool, now C[C@@]12CC[C@H]3C[C@@H]1CC[C@]21C(=Nc2ccc(Br)cc21)O3 [(−)-15b]
Found: 14

Lookup: Continue with Cc1ccc2[nH]c3c(c(=O)c2c1)C[C@@H]1C[C@H](O)CC[C@]31C
Found: 11

Lookup: Also C[C@]12CC[C@@H](O)C[C@H]1CCC(=O)c1cc(C(F)(F)F)ccc1NC2=O [Compound 11e] , if possible.
Found: 7

Lookup: C[C@]12CC[C@@H]3C[C@H]1CC[C@@]21C(=Nc2ccc(C(F)(F)F)cc21)O3 [Compound 15g] , same question.
Found: 18

Lookup: Param item: C[C@]12CC[C@@H](O)C[C@H]1CCC[C@]21NC(=O)c2ccccc2N1
Found: 10

Lookup: What about C[C@]12CC[C@@H](O)C[C@H]1CCc1c2[nH]c2c(F)cc(Cl)cc12 [Compound 10i] ?
Found: -4

====

IC50, Aster-A (Homo sapiens, UniProt Q96CP6): measured values
Give a bare numeral; the unit nM is implied.

Lookup: Which measured IC50 belongs to C[C@]12CC[C@@H]3C[C@H]1CC[C@@]21C(=Nc2ccc(-c4ccccc4)cc21)O3 [Compound 21a] , tested on Aster-A (Homo sapiens, UniProt Q96CP6)?
Found: 2530

Lookup: Could you do the same for CC12CCC3CC1CCC21C(=Nc2ccc(NCc4ccccc4)cc21)O3 (stereo not shown) [Compound 19b] , please?
Found: 13400

Lookup: Likewise for CC(C)(C)OC(=O)N1CCN(c2ccc3c(c2)C24CCC5CC(CCC52C)OC4=N3)CC1 (stereo not shown) [Compound 19e] ?
Found: 1250

Lookup: Same read-out for CC(C)Oc1ccc(C(=O)Nc2nc3c(s2)CN(C(=O)OC(C)(C)C)CC3)cc1 [Autogramin-2, reference compound] ?
Found: 1090
